Below, each entry is listed with its recorded IC50.
TARGET UNDER TEST: Sodium-dependent serotonin transporter (Homo sapiens)
Sequence (P31645 whole entry): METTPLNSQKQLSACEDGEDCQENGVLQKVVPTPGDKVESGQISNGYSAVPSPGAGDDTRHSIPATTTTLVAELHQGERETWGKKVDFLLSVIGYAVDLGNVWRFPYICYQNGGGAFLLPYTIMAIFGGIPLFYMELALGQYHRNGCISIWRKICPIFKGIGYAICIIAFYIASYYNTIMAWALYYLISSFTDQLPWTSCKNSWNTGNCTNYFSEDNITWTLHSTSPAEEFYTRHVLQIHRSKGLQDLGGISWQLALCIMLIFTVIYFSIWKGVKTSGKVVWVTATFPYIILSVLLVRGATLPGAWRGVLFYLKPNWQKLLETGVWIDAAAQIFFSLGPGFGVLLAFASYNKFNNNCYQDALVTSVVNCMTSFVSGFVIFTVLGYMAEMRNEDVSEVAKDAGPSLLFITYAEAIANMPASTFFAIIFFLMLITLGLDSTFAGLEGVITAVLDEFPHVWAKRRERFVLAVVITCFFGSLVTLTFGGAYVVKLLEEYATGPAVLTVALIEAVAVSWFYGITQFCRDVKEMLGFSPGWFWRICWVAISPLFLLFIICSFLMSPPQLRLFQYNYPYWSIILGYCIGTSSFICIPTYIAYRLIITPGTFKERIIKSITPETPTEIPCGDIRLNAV
PROTOCOL: Displacement of [3H]citalopram from human SERT expressed in HEK293 cell membrane
Format: cell membranes

compound="Cc1cc([C@@H]2C3CCC(C[C@H]2c2ccc(F)cc2)S3)on1 (stereo partly drawn)" reported_value="> 10 µM"
compound="Cc1cc(C2=C(c3ccc(Br)cc3)CC3CCC2S3)on1 (stereo not drawn)" reported_value="> 10 µM"
compound="Cc1cc([C@@H]2C3CCC(C[C@@H]2c2ccc(F)cc2)S3)on1 (stereo partly drawn)" reported_value="> 1 µM"

Ask | IC50 for Fc1ccc([C@@H]2CC3CCC(S3)C2c2cc(-c3ccccc3)no2)cc1 (stereo partly drawn) ?
Reply | > 10 µM

* * *

pIC50 tested on Sodium-dependent dopamine transporter (Homo sapiens, UniProt Q01959): recorded values
Sequence (Q01959 whole entry): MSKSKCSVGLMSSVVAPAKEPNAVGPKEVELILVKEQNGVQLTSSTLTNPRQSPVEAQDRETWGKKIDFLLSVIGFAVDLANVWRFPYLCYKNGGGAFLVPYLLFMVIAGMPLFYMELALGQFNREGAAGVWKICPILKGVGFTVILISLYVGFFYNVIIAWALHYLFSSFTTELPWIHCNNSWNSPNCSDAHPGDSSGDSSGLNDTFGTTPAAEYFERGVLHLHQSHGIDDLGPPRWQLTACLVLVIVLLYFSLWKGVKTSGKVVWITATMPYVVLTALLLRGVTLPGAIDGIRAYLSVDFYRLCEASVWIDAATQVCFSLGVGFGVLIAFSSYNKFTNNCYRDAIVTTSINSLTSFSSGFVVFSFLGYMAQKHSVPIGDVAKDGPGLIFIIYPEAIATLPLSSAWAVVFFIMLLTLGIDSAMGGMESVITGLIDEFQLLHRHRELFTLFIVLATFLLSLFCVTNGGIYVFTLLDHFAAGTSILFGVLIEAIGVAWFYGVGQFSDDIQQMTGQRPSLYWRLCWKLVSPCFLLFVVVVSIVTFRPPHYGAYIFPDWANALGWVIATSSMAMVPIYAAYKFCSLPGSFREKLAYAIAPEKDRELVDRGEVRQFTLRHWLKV
Keep it numeric: pIC50 is minus log10 of the concentration in mol/L.

molecule="Cc1cc([C@@H]2C3CCC(C[C@@H]2c2ccc(Cl)c(Cl)c2)S3)on1 (some centres not stated)" target_under_test="Sodium-dependent dopamine transporter (Homo sapiens, UniProt Q01959)" reported_value=7.36

Ask | pIC50 for Cc1cc([C@@H]2C3CCC(C[C@H]2c2ccccc2)S3)on1 (some centres not stated) ?
Reply | 7.19

Ask | pIC50 for Cc1cc([C@@H]2C3CCC(C[C@@H]2c2ccc(F)cc2)S3)on1 (some centres not stated) ?
Reply | 8.15

Ask | pIC50 for c1ccc(-c2cc(C3C4CCC(C[C@@H]3c3ccccc3)S4)on2)cc1 (some centres not stated) ?
Reply | 6.80

Ask | pIC50 for Cc1cc(C2=C(c3ccc(Br)cc3)CC3CCC2S3)on1 (configuration not stated) ?
Reply | 6.86

Ask | pIC50 for Cc1cc([C@@H]2C3CCC(C[C@H]2c2ccc(Cl)cc2)S3)on1 (some centres not stated) ?
Reply | 7.49

Ask | pIC50 for Brc1ccc(C2=C(c3cc(-c4ccccc4)no3)C3CCC(C2)S3)cc1 (configuration not stated) ?
Reply | 6.90

Ask | pIC50 for Cc1cc([C@@H]2C3CCC(C[C@@H]2c2ccccc2)S3)on1 (some centres not stated) ?
Reply | 7.92

Ask | pIC50 for Cc1cc([C@@H]2C3CCC(C[C@@H]2c2ccc(Cl)cc2)S3)on1 (some centres not stated) ?
Reply | 8.14

Ask | pIC50 for Clc1ccc([C@@H]2CC3CCC(S3)C2c2cc(-c3ccccc3)no2)cc1Cl (some centres not stated) ?
Reply | 6.30

Ask | pIC50 for Cc1cc(C2=C(c3ccc(Cl)cc3)CC3CCC2S3)on1 (configuration not stated) ?
Reply | 6.81

Ask | pIC50 for Clc1ccc([C@H]2CC3CCC(S3)C2c2cc(-c3ccccc3)no2)cc1Cl (some centres not stated) ?
Reply | 6.57

Ask | pIC50 for Clc1ccc(C2=C(c3cc(-c4ccccc4)no3)C3CCC(C2)S3)cc1Cl (configuration not stated) ?
Reply | 6.48

Ask | pIC50 for Fc1ccc([C@@H]2CC3CCC(S3)C2c2cc(-c3ccccc3)no2)cc1 (some centres not stated) ?
Reply | 6.34

Ask | pIC50 for Clc1ccc(C2=C(c3cc(-c4ccccc4)no3)C3CCC(C2)S3)cc1 (configuration not stated) ?
Reply | 7.18

Ask | pIC50 for Brc1ccc([C@@H]2CC3CCC(S3)C2c2cc(-c3ccccc3)no2)cc1 (some centres not stated) ?
Reply | 6.62

Ask | pIC50 for Cc1cc([C@@H]2C3CCC(C[C@H]2c2ccc(Cl)c(Cl)c2)S3)on1 (some centres not stated) ?
Reply | 6.99

Recorded values, source ChEMBL document CHEMBL1641369.
